Molecular target: Probable nicotinate-nucleotide adenylyltransferase (Staphylococcus aureus (strain N315));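 also: confirmatory dose-response retesting of NadD inhibitor hits first found in an ultra-high-throughput screen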
Sequence (P65502 whole entry): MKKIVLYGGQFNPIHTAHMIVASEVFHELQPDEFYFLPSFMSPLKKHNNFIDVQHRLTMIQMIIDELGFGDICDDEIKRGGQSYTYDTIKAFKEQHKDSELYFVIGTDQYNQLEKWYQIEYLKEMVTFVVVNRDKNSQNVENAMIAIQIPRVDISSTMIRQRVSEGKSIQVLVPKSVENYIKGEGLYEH
Format: functional, Staphylococcus aureus subsp. aureus N315
Settings: read-out: IC50_Mean
Calls of active or inactive are those of the source. No rule for the calls is given here.
observationType: IC50

# structureString, result
records = [
    ("Cc1ccc(S(=O)(=O)Nc2ccc(Nc3nccn4c(-c5ccccc5Oc5ccccc5)cnc34)cc2)cc1", "20.1 µM (active)"),
    ("Cc1ccc(-n2nc3c(c2NC(=O)c2cccs2)CSC3)cc1", "16.2 µM (active)"),
    ("Cc1ccc(Cn2nnc3c(O)nc(C4CCN(S(=O)(=O)c5ccc(S(=O)(=O)NC6CC6)cc5)CC4)nc32)cc1", "54.4 µM (active)"),
    ("Cc1ccc(-n2nc(C)c(/C=N/c3ccc(S(=O)(=O)Nc4nccs4)cc3)c2O)cc1C", "17.4 µM (active)"),
]
